Origin of values: patent US7291217B2

Assay: Static salt fog accelerated corrosion test (ASTM B-117) of PVB wash primer containing the pigment, rated by ASTM D-1654
Conditions: ASTM D-1654 rating, unscribed areas; 7075-T6; 117 h; inhibitor conc. 1.86 × 10^−3 M (25% of Cr); two cells per column
Experimental: The corrosion-inhibiting performance of CeIV pigments was evaluated by incorporating them into primer paint formulations. […] The wash primer is composed of a resin, an acid, a corrosion-inhibiting pigment, powdered talc, and carbon lampblack. The acid content of this wash primer provides a rigorous initial test of the stability and performance of the pigments. […]
Documented B-117 Proc. B across a set of compounds

// known answers, use as guide
[[record]]
compound = "CCCCC[N+](CCCCC)(CCCCC)CCCCC.CCCCC[N+](CCCCC)(CCCCC)CCCCC.O=[N+]([O-])[O-].O=[N+]([O-])[O-].O=[N+]([O-])[O-].O=[N+]([O-])[O-].O=[N+]([O-])[O-].O=[N+]([O-])[O-].[Ce+4] [Nitrate/NPe4^+]"
observed = 6

[[record]]
compound = "CCC[N+](CCC)(CCC)CCC.CCC[N+](CCC)(CCC)CCC.O=[N+]([O-])[O-].O=[N+]([O-])[O-].O=[N+]([O-])[O-].O=[N+]([O-])[O-].O=[N+]([O-])[O-].O=[N+]([O-])[O-].[Ce+4] [Nitrate/NPr4^+]"
observed = 6

[[record]]
compound = "CC[N+](CC)(CC)CC.CC[N+](CC)(CC)CC.O=[N+]([O-])[O-].O=[N+]([O-])[O-].O=[N+]([O-])[O-].O=[N+]([O-])[O-].O=[N+]([O-])[O-].O=[N+]([O-])[O-].[Ce+4] [Nitrate/NEt4^+]"
observed = 4


--- query ---
Q) Looking for the measured B-117 Proc. B of CCCC[N+](CCCC)(CCCC)CCCC.CCCC[N+](CCCC)(CCCC)CCCC.O=[N+]([O-])[O-].O=[N+]([O-])[O-].O=[N+]([O-])[O-].O=[N+]([O-])[O-].O=[N+]([O-])[O-].O=[N+]([O-])[O-].[Ce+4] [Nitrate/NBu4^+] , can you help?
A) 6
